Cited source for all entries: patent US20220177587A1

Target: human PD-L1 (human) (UniProt Q9NZQ7)
Sequence (Q9NZQ7 19-290): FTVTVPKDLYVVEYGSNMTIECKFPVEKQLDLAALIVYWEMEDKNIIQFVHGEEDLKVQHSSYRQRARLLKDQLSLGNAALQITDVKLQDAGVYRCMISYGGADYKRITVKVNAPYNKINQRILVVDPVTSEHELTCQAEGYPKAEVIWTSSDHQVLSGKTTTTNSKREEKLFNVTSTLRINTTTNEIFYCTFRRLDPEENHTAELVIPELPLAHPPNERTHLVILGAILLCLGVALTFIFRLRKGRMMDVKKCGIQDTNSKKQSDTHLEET
Assay: flow cytometry, CHO cells expressing huPD-L1
READOUT TYPE: MFI at 33.3 nM (MFI)

Please review the following examples before continuing.
Note MFI at 33.3 nM for the binder shown: variant CD80 IgV-Fc E35D/D46E/M47V/A71D/D90G (Fc fusion) VIHVTKEVKEVATLSCGHNVSVEELAQTRIYWQKDKKMVLTMMSGEVNIWPEYKNRTIFDITNNLSIVILDLRPSDEGTYECVVLKYEKGAFKREHLAEVTLSVKAD
32400

Give the reported MFI at 33.3 nM for this binder. variant CD80 IgV-Fc M47V/V68M (Fc fusion) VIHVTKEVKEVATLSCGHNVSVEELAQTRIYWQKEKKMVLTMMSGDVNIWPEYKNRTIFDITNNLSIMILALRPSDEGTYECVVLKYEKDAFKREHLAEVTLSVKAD
4290

A = variant CD80 IgV-Fc E35D/D46V/L85Q (Fc fusion) VIHVTKEVKEVATLSCGHNVSVEELAQTRIYWQKDKKMVLTMMSGVMNIWPEYKNRTIFDITNNLSIVILALRPSDEGTYECVVQKYEKDAFKREHLAEVTLSVKAD
B = variant CD80 IgV-Fc Q33L/E35D/M47I/N48D/A71G (Fc fusion) VIHVTKEVKEVATLSCGHNVSVEELAQTRIYWLKDKKMVLTMMSGDIDIWPEYKNRTIFDITNNLSIVILGLRPSDEGTYECVVLKYEKDAFKREHLAEVTLSVKAD
Identify the entry with the smaller MFI at 33.3 nM: A or B . Kindly state the label of the option you pick.
A
